Target: RNF31 PUB domain (Homo sapiens, UniProt Q96EP0)
Construct: MBP-TEV (N, cleaved yes); made in house; host or cells: E. coli BL21 (DE3) pLysS
Sequence (Q96EP0 1-179): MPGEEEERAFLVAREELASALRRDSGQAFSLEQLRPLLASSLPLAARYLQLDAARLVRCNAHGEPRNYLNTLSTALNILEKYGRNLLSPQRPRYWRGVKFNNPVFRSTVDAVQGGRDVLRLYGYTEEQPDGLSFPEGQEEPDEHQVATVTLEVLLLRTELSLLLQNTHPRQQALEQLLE
Experiment: Phage Library Screening with NGS, RNF31 PUB domain
Type: binding
Settings: clusters C41-C45; BLANK screen, column 2 of 5
Measured Phage library screen NGS readout, BLANK accompanies every entry in the list below.

Would you please look over these solved cases?
Sequence code	Phage library screen NGS readout, BLANK
DPAYWQCIYAAWDCDQM	2
DPAYWDCMYAAFYCDDI	0
DPAYWDCLYAAADCAFY	0
DPAEDWCMYAAWDCQME	0

Record `DPAWWNCLYAAYECNHA` , field Phage library screen NGS readout, BLANK: 0

Record `DPAQMECIDAAIMCSYT` , field Phage library screen NGS readout, BLANK: 0

---

Target: RNF31 PUB domain (Homo sapiens, UniProt Q96EP0)
Construct: MBP-TEV (N, cleaved yes); made in house; host or cells: E. coli BL21 (DE3) pLysS
Sequence (Q96EP0 1-179): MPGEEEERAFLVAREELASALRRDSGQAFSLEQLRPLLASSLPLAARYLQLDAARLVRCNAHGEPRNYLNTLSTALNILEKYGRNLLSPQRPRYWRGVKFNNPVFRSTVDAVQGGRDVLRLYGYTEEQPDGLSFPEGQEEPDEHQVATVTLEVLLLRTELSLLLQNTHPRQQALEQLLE
Assay: Phage Library Screening with NGS, RNF31 PUB domain
Format: binding
Conditions: RNF31 PUB domain clusters C41-C45; target concentration 1000, second column
Phage library screen NGS readout, Target Concentration 1000 strictly under 8 means Fulfilled; at 8 or over means Not fulfilled.

Use these answered entries as a reference point.
DPAYYTCDWAAIYCDYH Fulfilled
DPAEDWCMYAAWDCQME Not fulfilled
DPAWEWCLYAAAECIED Fulfilled

Challenge: Phage library screen NGS readout, Target Concentration 1000 strictly < 8 for this sequence? `DPATWWCLYAAEDCVNI`
Response given: Fulfilled

Challenge: Phage library screen NGS readout, Target Concentration 1000 strictly < 8 for this sequence? `DPAIDACYDAAVMCTYV`
Response given: Not fulfilled

Challenge: Phage library screen NGS readout, Target Concentration 1000 strictly < 8 for this sequence? `DPAWDYCMYAAYDCNHS`
Response given: Not fulfilled

Challenge: Phage library screen NGS readout, Target Concentration 1000 strictly < 8 for this sequence? `DPAFAQCEVAAMVCTTY`
Response given: Fulfilled

Challenge: Phage library screen NGS readout, Target Concentration 1000 strictly < 8 for this sequence? `DPAEWDCLYAAFDCFAN`
Response given: Fulfilled

Challenge: Phage library screen NGS readout, Target Concentration 1000 strictly < 8 for this sequence? `DPAAWECHIAAFVCSTY`
Response given: Fulfilled

Challenge: Phage library screen NGS readout, Target Concentration 1000 strictly < 8 for this sequence? `DPAFTDCQLAAAVCMTY`
Response given: Not fulfilled

Challenge: Phage library screen NGS readout, Target Concentration 1000 strictly < 8 for this sequence? `DPAWWDCMYAASHCDTV`
Response given: Fulfilled

Challenge: Phage library screen NGS readout, Target Concentration 1000 strictly < 8 for this sequence? `DPAYSSCSWAAIYCNWT`
Response given: Fulfilled

Challenge: Phage library screen NGS readout, Target Concentration 1000 strictly < 8 for this sequence? `DPASHMCLEAAVMCTYD`
Response given: Not fulfilled

Challenge: Phage library screen NGS readout, Target Concentration 1000 strictly < 8 for this sequence? `DPAIRECMLAALVCSTY`
Response given: Not fulfilled

Challenge: Phage library screen NGS readout, Target Concentration 1000 strictly < 8 for this sequence? `DPAYDWCLYAAEYCHTD`
Response given: Fulfilled

---

Molecular target: RNF31 UBA domain (Homo sapiens)
Construct: RNF31 UBA domain protein (residues 480-639) with N-terminal Thioredoxin-TEV-6×his-yBBr-3C tags; Thioredoxin (N, cleaved yes); made in house; host or cells: E. coli BL21 (DE3) pLysS
Sequence (Q96EP0 480-639): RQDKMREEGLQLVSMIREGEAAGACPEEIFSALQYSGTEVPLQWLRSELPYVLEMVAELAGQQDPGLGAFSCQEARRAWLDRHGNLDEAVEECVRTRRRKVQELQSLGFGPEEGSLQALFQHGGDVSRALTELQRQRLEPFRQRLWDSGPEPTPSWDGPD
Assay: Phage Library Screening with NGS, RNF31 UBA domain
Type: binding
Conditions: Target Concentration 10; no competitor
Assay metric: phage screen NGS read-out at Target Concentration 10
# print the numeric value only

Sequence code	Assay value
DPAFSQCVYAAFFCREI	1
DPAREHCAAAATWCOLL (DPAREHCAAAATWCQLL)	1
DPAQQICLSAAVFCSIF	0
DPASSHCQSAAIWCYLM	1
DPAFSMCVYAAVTCVST	0
DPAQWVCHMAAMNCLYQ	0

Record `DPAYEHCVAAAYWCYLL` , field phage screen NGS read-out at Target Concentration 10: 1

Record `DPAMIQCLSAAVYCVHY` , field phage screen NGS read-out at Target Concentration 10: 1

---

Measured Phage library screen NGS readout, Target Concentration 300 accompanies every entry in the list below.
Biological target: RNF31 PUB domain (Homo sapiens, UniProt Q96EP0)
Construct: MBP-TEV (N, cleaved yes); made in house; host or cells: E. coli BL21 (DE3) pLysS
Sequence (Q96EP0 1-179): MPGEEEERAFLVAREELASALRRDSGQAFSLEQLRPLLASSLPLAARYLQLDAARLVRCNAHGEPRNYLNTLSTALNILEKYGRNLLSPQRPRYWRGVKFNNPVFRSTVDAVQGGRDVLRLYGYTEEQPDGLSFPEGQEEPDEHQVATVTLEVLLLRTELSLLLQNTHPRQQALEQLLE
Assay: Phage Library Screening with NGS, RNF31 PUB domain
Format: binding
Conditions: RNF31 PUB domain clusters C41-C45; target concentration 300
# print the numeric value only

Would you please look over these solved cases?
Sequence code	Measurement target	Assay value
DPAQEECFEAAVFCSYY	RNF31 PUB domain (Homo sapiens, UniProt Q96EP0)	7
DPAFHDCQFAAAVCSTY	RNF31 PUB domain (Homo sapiens, UniProt Q96EP0)	3
DPAWNDCLYAAETCISW	RNF31 PUB domain (Homo sapiens, UniProt Q96EP0)	3
DPAYWDCMYAAFYCDDI	RNF31 PUB domain (Homo sapiens, UniProt Q96EP0)	3
DPAIWECVSAAAVCMTY	RNF31 PUB domain (Homo sapiens, UniProt Q96EP0)	2

Record `DPAQDQCISAAVLCTYT` , field Phage library screen NGS readout, Target Concentration 300: 22

Record `DPAYYTCDWAAIYCDYH` , field Phage library screen NGS readout, Target Concentration 300: 1

---

Measured interaction data at Target Concentration 1000 accompanies every entry in the list below.
Molecular target: CHIP (Homo sapiens, UniProt Q9UNE7)
Construct: N-term truncated CHIP (also known as STUB1, Uniprot ID: Q9UNE7, residues 23-303); made in house; host or cells: E. coli BL21 CodonPlus
Sequence (Q9UNE7 23-303): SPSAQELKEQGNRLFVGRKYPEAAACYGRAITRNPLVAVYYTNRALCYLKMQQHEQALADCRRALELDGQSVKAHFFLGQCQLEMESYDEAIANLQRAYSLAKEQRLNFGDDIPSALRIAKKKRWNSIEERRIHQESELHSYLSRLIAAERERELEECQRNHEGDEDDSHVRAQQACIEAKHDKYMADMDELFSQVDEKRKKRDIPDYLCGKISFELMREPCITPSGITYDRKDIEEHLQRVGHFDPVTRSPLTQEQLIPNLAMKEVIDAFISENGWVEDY
Assay: Naive Library Presenter Screening (phage, NGS), CHIP
Format: binding
Details: CHIP clusters (C83, C84); target concentration 1000 nM, second column
Numbered stars: 1 amine (or outer) side, 2 acyl side, 3 side chain; on linkers, the order of the positions; unused ones are H or OH. Bridge positions count the residues as written; N and C are the ends. Ends that are not written are not given here. Phenylene(1,4-NHCOCH2)2 = O=C(C[*:1])Nc1ccc(NC(=O)C[*:2])cc1
# print the numeric value only

Would you please look over these solved cases?
Sequence code	Assay value
DPAFWRCQFAAATCEHT (linker 7-14 via Phenylene(1,4-NHCOCH2)2 (inferred))	726
DPASQWCQRAASICWID (DPASQWCQRAASICWID-NH2; linker 7-14 via Phenylene(1,4-NHCOCH2)2 (inferred))	8
DPAEYACYHAASICNVD (linker 7-14 via Phenylene(1,4-NHCOCH2)2 (inferred))	91
DPAFDACQFAAAMCDHQ (linker 7-14 via Phenylene(1,4-NHCOCH2)2 (inferred))	248

Record DPAQYNCYFAANICTVD (DPAQYNCYFAANICTVD-NH2; linker 7-14 via Phenylene(1,4-NHCOCH2)2 (inferred)) , field interaction data at Target Concentration 1000: 17

Record DPAFTACQFAAAMCDSS (linker 7-14 via Phenylene(1,4-NHCOCH2)2 (inferred)) , field interaction data at Target Concentration 1000: 5

Record DPAFEYCQWAAATCQMD (linker 7-14 via Phenylene(1,4-NHCOCH2)2 (inferred)) , field interaction data at Target Concentration 1000: 90
